Task for the reader: assign each of the following binders its reported EC50.
target.under.test: T1, recombinantly produced LILRB2 extracellular domain (ECD) protein (UniProt Q8N423 22-460, limits assumed)
T1 construct: extracellular domain; A LILRB2-His protein was used for panning; also called plate-coated LILRB2; LILRB2 ECD
procedure.text: ELISA, plate-coated LILRB2, anti-human F(ab)2 HRP detection
Field format: number, assumed nM, no unit text.

According to the records, this binder NeuB2-40 (antibody, V domains shown, also called Ab40; 40-HC/40-LC) VH: QVQLVQSGAEVKKPGASVKVSCKASGYTFTNYGISWVRQAPGQGLEWMGWISGDAGDTKFAQKFQGRVTMTTDTSTTTTYMELRSLRSDDTAVYYCARDGEYIPMFRGFDNYYGLDVWGQGTTVTVSS VL: QPVLTQPPSVSEAPRQRVTISCSGSSSNIGKNAVNWYQQFPGKAPKLLIYYDDLLPSGVSDRFSGSRSGTSASLAISGLQSEDEADYYCAAWDDRLKGYVFGTGTQLTVL displays EC50 of 0.0664

According to the records, this binder NeuB2-60 (antibody, V domains shown, also called Ab60; 60-HC/60-LC) VH: QVQLQESGPGLVKPSGTLSLTCAVSGGSITSSNWWSWVRQPPGKGLEWIGDISHSGSTNYNPSLKGRVTMSVDRSKNQFFLKLSSVTAADTAMYYCARAFHGMDVWGQGTTVTVSS VL: QSVLTQPPSVSEAPRQRVTISCSGSSSNIANNAVNWYQQLPGKAPKLLIYYDDLLASGVSDRFSGSRSGTSAALAISGLQSEDEADYYCATWDDDLNGPIFGGGTKVTVL displays EC50 of 0.161

According to the records, this binder NeuB2-55 (antibody, V domains shown, also called Ab55; 55-HC/55-LC) VH: EVQLVQSGAEVKKPGSSVKVSCKASGGTFSSYAISWVRQAPGQGLEWMGGIIPIFGTANYAQKFQGRVTITADESTSTAYMELSSLRSEDTAVYYCARGVDQVDYWGQGTLVTVSS VL: QAVVTQPASVSGSPGQSITISCTGTSSDVGGYNYVSWYQQHPGKAPKLMIYDVSNRPSGVSNRFSGSKSGNTASLTISGLQAEDEADYYCSSYTSSSTPYVFGTGTKVTVL displays EC50 of 0.175

According to the records, this binder NeuB2-29 (antibody, V domains shown, also called Ab29; NewuB2-29) VH: QVQLVETGGGVVQPGRSLRLSCAASGFTFSDYAMHWVRQAPGKGLEWVTLISYDGSQKYYADSVKGRFTISRDDSKNTVDLQMNSLKAEDTAVYYCAKFPSLNDNVGFDVWGQGTMVTVSS VL: QSVLTQPPSVSGAPRERVTISCSGSTSNIENNAVNWYQQLPGKAPKLLIYYDDLVPSGVSDRFSGSKSGTSASLAISGLQSGDEAYYYCAVWDDSLNGPVFGGGTKVTVL displays EC50 of 0.137

According to the records, this binder NeuB2-93 (antibody, V domains shown, also called Ab93; 93-HC/93-LC) VH: QVQLMQSGAEVKKPGSSVKVSCKASGGRFSSNVMSWVRQAPGQGLEWMGGIIPIFGTPKYAQKFQGRVTITADKSTSTAYMELSSLRSEDTAVYYCASGSTPFDAFDIWGQGTMVTVSS VL: QPVLTQPASVSGSPGQSITISCTGTSSDVGGYNYVSWYQQHPGKAPKLMIYEVSNRPSGVSNRFSGSKSGNTASLTISGLQAEDEADYYCSSYTSSSTPWVFGGGTKVTVL displays EC50 of 0.159

Taken from patent US20240392001A1.
